# Assay target: ErbB2 with Exon 20 YVMA insertion (HER2-YVMA) (Homo sapiens (Human), UniProt P04626, INS775YVMA)
# Sequence (P04626 other isoform, or with tags, fused parts or gaps ins YVMA behind 775): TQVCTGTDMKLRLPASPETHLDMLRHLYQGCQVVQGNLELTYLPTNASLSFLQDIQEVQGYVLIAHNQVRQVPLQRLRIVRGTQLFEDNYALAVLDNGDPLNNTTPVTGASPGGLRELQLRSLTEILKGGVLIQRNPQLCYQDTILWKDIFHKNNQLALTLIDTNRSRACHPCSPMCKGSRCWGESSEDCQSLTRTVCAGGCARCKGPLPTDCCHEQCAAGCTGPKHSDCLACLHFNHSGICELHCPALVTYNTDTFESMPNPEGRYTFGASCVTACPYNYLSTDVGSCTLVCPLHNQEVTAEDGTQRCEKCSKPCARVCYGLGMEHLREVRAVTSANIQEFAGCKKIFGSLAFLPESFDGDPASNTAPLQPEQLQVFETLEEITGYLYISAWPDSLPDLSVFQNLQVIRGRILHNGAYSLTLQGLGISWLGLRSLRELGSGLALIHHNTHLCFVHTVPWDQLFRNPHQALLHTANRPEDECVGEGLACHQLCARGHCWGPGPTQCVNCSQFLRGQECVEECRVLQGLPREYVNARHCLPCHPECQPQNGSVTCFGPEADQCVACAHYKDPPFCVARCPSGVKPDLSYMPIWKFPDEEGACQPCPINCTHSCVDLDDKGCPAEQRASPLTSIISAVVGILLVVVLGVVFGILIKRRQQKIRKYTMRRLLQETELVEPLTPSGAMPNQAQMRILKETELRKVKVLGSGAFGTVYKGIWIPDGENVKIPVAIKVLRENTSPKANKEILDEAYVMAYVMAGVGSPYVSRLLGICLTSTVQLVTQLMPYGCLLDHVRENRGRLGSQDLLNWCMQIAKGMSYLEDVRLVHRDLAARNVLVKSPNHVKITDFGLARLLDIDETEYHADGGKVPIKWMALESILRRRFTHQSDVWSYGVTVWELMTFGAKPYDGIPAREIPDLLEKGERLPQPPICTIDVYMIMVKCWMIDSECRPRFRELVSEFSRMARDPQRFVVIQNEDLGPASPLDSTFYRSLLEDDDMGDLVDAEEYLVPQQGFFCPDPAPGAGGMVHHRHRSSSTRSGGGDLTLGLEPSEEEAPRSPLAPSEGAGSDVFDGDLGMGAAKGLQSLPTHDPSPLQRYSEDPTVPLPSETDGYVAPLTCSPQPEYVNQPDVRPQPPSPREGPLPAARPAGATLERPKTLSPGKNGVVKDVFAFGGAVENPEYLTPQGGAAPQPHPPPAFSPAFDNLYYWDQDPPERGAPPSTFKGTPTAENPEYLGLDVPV
# Protocol notes: Cellular phosphorylation assay, constitutive ErbB2 phosphorylation (Y1196) in engineered NIH 3T3 cells, Assay 4
The threshold is 60 nM. Values of IC50 beneath it are tagged t; values meeting or exceeding it are tagged f.

{"columns": ["Compound", "Answer label"],
 "data": [
  ["Cc1cc(Nc2ncnc3cnc(N4CC(C(C)(C)O)C4)nc23)ccc1Oc1ccc2c(c1)ncn2C", "t"],
  ["Cn1cnc2cc(Oc3ccc(Nc4ncnc5cnc(N6CCN7CCOC[C@H]7C6)nc45)cc3Cl)ccc21.O=C(O)C(F)(F)F.O=C(O)C(F)(F)F [Example 150, bis(2,2,2-trifluoroacetate)]", "t"],
  ["Cc1cc(Nc2ncnc3cnc(N4CCOC(C)(C)C4)nc23)ccc1Oc1ccc2c(c1)ncn2C", "t"],
  ["CN(c1ncc2ncnc(Nc3ccc(Oc4ccc5c(c4)ncn5C)c(Cl)c3)c2n1)[C@H]1CCOC1", "t"],
  ["CO[C@H]1C[C@@H](Nc2ncc3ncnc(Nc4ccc(Oc5ccc6c(c5)ncn6C)c(C)c4)c3n2)C1", "t"],
  ["Cc1c(Oc2ccn3ncnc3c2)ccc(Nc2ncnc3cnc(N[C@H]4CNC[C@H]4F)nc23)c1F", "f"],
  ["COC[C@H]1CCN1c1ncc2ncnc(Nc3ccc(Oc4ccn5ncnc5c4)c(Cl)c3)c2n1", "f"],
  ["Cc1cc(Nc2ncnc3cnc(N4CCOC5CC54)nc23)ccc1Oc1ccn2ncnc2c1 (centres unmarked)", "f"],
  ["Cc1cc(Nc2ncnc3cnc(N4CCN(CC(F)(F)F)CC4)nc23)ccc1Oc1ccc2c(c1)ncn2C", "f"],
  ["COC1(C)CN(c2ncc3ncnc(Nc4ccc(Oc5ccc6c(c5)ncn6C)c(C)c4)c3n2)C1", "t"]
]}
